# Organism: Rattus norvegicus
# experimentDescription: In vitro inhibition of Thromboxane B2 production in A-23,187-Induced Rat Whole Blood
# Format: functional
The reader will find reported IC50 values listed item by item below.

compoundStructure | censoringOperator | IC50 / nM
c1ccc(CNc2nc(-c3ccncc3)nc3ccccc23)cc1 | = | 1800
COc1ccc2nc(-n3ccnc3)nc(NCc3ccccc3)c2c1.Cl.Cl | = | 830
c1ccc(CNc2nc(-n3ccnc3)nc3ccccc23)cc1 | = | 1100
c1ccc(CNc2nc(-c3cccnc3)nc3ccccc23)cc1 | > | 10000

---

# assayedSystem: Phosphodiesterase 3 (Homo sapiens, UniProt Q14432+Q13370)
# experimentDescription: Inhibition of human platelet Phosphodiesterase 3
assayMetric: IC50

compoundStructure | assayedSystem | assayMetric | obsValue
Cl.Cl.Clc1ccc2nc(-c3cccnc3)nc(NCc3ccccc3)c2c1 | Phosphodiesterase 3 (Homo sapiens, UniProt Q14432+Q13370) | IC50 | > 50 µM
c1ccc(CNc2nc(-c3ccccc3)nc3ccccc23)cc1 | Phosphodiesterase 3 (Homo sapiens, UniProt Q14432+Q13370) | IC50 | > 100 µM
c1ccc(CNc2nc(-n3ccnc3)nc3ccccc23)cc1 | Phosphodiesterase 3 (Homo sapiens, UniProt Q14432+Q13370) | IC50 | 50 µM
c1ccc(CNc2nc(-c3cccnc3)nc3ccccc23)cc1 | Phosphodiesterase 3 (Homo sapiens, UniProt Q14432+Q13370) | IC50 | > 100 µM

---

# assayedSystem: Phosphodiesterase 4 (Rattus norvegicus, UniProt P14270+P14646+P14644+P54748)
# experimentDescription: Inhibition of rat kidney Phosphodiesterase 4
# Type: protein assay

compoundStructure | IC50
Cl.Cl.Clc1ccc2nc(-c3cccnc3)nc(NCc3ccccc3)c2c1 | > 50 µM
Cl.Cl.Clc1ccc2nc(-n3ccnc3)nc(NCc3ccccc3)c2c1 | > 3 µM
Cl.Cl.O=[N+]([O-])c1ccc2nc(-c3cccnc3)nc(NCc3ccccc3)c2c1 | > 3 µM

---

# assayedSystem: cGMP-dependent 3',5'-cyclic phosphodiesterase (Rattus norvegicus)
# Sequence (Q01062 whole entry): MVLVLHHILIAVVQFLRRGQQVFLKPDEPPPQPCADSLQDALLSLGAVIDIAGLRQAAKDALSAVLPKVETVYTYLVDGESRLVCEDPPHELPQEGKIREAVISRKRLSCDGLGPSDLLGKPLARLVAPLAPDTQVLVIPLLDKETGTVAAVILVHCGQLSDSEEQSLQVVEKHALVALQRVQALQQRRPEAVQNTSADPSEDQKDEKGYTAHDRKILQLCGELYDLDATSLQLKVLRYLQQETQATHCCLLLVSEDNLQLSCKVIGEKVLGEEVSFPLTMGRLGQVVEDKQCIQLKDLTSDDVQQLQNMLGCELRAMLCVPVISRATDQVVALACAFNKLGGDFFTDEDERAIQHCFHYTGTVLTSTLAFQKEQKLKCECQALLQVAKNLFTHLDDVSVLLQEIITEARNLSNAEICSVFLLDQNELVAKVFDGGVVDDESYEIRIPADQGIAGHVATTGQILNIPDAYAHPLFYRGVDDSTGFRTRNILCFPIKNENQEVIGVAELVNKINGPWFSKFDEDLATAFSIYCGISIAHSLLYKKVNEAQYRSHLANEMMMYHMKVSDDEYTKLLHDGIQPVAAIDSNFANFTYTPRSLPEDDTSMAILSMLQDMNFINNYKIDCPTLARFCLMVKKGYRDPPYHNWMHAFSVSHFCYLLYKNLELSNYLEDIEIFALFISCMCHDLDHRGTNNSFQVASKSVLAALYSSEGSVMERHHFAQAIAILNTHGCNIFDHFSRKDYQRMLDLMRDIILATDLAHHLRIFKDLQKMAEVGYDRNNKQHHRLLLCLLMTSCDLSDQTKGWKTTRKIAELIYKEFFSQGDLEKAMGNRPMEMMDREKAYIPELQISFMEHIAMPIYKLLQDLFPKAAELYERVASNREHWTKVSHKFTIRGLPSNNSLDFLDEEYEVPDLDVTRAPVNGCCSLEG
# experimentDescription: Inhibition of rat brain Phosphodiesterase 2

compoundStructure | IC50
Cl.Cl.O=[N+]([O-])c1ccc2nc(-c3cccnc3)nc(NCc3ccccc3)c2c1 | > 3 µM
Cl.Cl.Clc1ccc2nc(-c3cccnc3)nc(NCc3ccccc3)c2c1 | > 50 µM
Cl.Cl.Clc1ccc2nc(-n3ccnc3)nc(NCc3ccccc3)c2c1 | > 3 µM
